target: human recombinant HDAC6 (Homo sapiens); construct: purchased Calbiochem 382180; assay: HDAC6 enzyme activity inhibition assay (in vitro, fluorimetric); assay type: biochemical; details: human recombinant HDAC6, fluorimetric kit, same protocol as HDAC1
Sequence (Q9UBN7 whole entry): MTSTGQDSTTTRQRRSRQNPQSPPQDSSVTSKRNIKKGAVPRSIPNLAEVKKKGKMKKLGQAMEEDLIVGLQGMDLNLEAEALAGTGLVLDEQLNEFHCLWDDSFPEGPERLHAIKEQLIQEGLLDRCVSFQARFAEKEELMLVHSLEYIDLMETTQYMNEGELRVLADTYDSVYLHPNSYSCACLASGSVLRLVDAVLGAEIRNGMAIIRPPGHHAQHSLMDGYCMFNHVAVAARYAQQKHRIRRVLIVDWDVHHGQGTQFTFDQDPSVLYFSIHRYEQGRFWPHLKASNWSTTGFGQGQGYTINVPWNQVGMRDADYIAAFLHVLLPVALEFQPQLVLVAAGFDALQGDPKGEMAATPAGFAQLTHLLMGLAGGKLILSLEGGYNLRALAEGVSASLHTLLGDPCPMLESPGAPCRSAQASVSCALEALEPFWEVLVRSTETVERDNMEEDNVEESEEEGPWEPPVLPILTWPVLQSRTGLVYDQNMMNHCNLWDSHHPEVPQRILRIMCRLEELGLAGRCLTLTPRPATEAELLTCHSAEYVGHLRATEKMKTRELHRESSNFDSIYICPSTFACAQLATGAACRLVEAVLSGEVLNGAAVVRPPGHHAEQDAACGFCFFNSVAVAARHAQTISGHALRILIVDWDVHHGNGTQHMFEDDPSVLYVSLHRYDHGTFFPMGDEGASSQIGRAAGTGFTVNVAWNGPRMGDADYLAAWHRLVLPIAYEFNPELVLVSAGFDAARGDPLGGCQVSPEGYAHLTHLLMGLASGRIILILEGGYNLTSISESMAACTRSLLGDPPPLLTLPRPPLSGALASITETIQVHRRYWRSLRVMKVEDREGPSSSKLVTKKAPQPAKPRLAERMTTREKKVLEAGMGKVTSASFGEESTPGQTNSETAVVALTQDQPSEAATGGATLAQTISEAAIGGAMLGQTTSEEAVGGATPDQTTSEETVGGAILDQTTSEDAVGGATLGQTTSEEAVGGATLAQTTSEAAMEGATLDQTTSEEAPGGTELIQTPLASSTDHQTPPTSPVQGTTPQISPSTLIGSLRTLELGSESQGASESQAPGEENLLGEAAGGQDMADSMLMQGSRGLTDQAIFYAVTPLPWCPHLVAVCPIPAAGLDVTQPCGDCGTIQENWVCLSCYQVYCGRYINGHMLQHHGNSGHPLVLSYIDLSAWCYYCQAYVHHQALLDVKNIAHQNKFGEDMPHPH
parameter_measured: IC50 (nM)
Please respond with the number in nM and leave the unit unwritten.

Give the measured IC50 of C[C@@H]1CN(Cc2ccc(C(=O)NO)cc2)C[C@H](C)N1C(=O)Cc1cccc(F)c1 .
100

Fill blank: measured IC50 of the compound C[C@@H]1CN(S(=O)(=O)c2ccccc2Cl)C[C@H](C)N1Cc1ccc(C(=O)NO)cc1 is ____.
85

Requested read-out: IC50. Entry: C[C@@H]1CN(Cc2ccc(C(=O)NO)cc2)C[C@H](C)N1C(=O)Cc1cccc(C(F)(F)F)c1
118

# query: IC50 of entry C[C@@H]1CN(C(=O)c2ccc(Cl)cc2)C[C@H](C)N1Cc1ccc(C(=O)NO)cc1
119

# get_value(readout='IC50', item= CC(=O)N1CCN(Cc2ccc(CN3[C@H](C)CN(Cc4ccc(C(=O)NO)cc4)C[C@@H]3C)cc2)CC1 )
126

Report IC50 for C[C@@H]1CN(Cc2ccc(C(=O)NO)cc2)C[C@@H](C)N1C(=O)c1ccco1 please.
120

Given the entry C[C@@H]1CN(Cc2ccccc2-c2ccncc2)C[C@H](C)N1Cc1ccc(C(=O)NO)cc1 , report its measured IC50.
194

Give the measured IC50 of C[C@@H]1CN(Cc2ccc(C(=O)NO)cc2)C[C@H](C)N1Cc1cccc(-c2cccnc2)c1 .
12

Item under review: C[C@@H]1CN(Cc2ccc(C(=O)NO)cc2)C[C@H](C)N1Cc1ccc(CN2CCN(C)CC2)cc1 . Reported IC50?
29

I would be grateful if you could share the reported IC50 for C[C@@H]1CN(Cc2ccc(C(=O)NO)cc2)C[C@H](C)N1Cc1cccc(CN2CC[C@@H](F)C2)c1 .
98

Data request, read-out IC50, for CCN(CC)Cc1cccc(CN2C[C@@H](C)N(Cc3ccc(/C=C/C(=O)NO)cc3)[C@@H](C)C2)c1
142

Field request: IC50 | item: C[C@@H]1CN(Cc2ccc(C(=O)NO)cc2)C[C@H](C)N1Cc1cccc(Cl)c1C(F)(F)F
188

# input compound: C[C@@H]1CN(Cc2ccc(C(=O)NO)cc2)C[C@H](C)N1Cc1ccccc1C1=CCN(CC(F)(F)F)CC1 ; wanted: its IC50
103

Item under review: CCN(CC)Cc1cccc(CN2[C@H](C)CN(Cc3ccc(C(=O)NO)cc3)C[C@@H]2C)c1 . Reported IC50?
142

Suppose we examine the compound C[C@@H]1CN(Cc2ccc(C(=O)NO)cc2)C[C@H](C)N1Cc1ccco1 ; what IC50 value has been reported?
33
